EXPERIMENTAL_SYSTEM: UniProtKB P05177
RUN_DESCRIPTION: Metabolism-dependent inhibition of CYP1A2 in human liver microsomes using phenacetin as substrate preincubated for 20 mins with NADPH prior to initiation of reaction with probe substrate by HPLC analysis
Type: ADME
MEASURED_ENDPOINT: IC50

Form field: reported IC50 of C[C@@H]1CCO[C@H]2Cn3cc(C(=O)NCc4ccc(F)cc4F)c(=O)c(O)c3C(=O)N12 [DOLUTEGRAVIR]
> 100 µM

----------
RUN_DESCRIPTION: Protein binding in plasma (unknown origin)
Format: ADME, cell-free
CONDITION: read-out: PPB
MEASURED_ENDPOINT: fraction unbound

Form field: reported fraction unbound of "C[C@@H]1CCO[C@H]2Cn3cc(C(=O)NCc4ccc(F)cc4F)c(=O)c(O)c3C(=O)N12"
< 0.01

----------
EXPERIMENTAL_SYSTEM: Cytochrome P450 1A2 (Homo sapiens)
Sequence (P05177 whole entry): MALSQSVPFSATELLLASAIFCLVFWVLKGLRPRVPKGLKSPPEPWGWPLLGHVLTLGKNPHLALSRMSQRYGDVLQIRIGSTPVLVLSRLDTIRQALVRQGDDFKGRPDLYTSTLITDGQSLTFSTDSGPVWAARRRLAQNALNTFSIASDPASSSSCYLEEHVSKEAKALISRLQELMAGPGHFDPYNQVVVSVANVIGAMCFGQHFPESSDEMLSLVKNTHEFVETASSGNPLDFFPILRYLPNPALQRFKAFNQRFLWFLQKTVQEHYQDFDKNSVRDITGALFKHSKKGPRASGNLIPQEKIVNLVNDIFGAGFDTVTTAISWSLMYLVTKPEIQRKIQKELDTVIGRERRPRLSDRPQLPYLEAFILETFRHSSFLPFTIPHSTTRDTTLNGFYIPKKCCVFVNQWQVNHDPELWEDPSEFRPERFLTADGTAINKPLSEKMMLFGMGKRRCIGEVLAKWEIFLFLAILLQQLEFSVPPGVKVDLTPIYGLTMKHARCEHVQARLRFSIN
RUN_DESCRIPTION: Inhibition of CYP1A2 in human liver microsomes using phenacetin as substrate preincubated for 20 mins with substrate prior to initiation of reaction with NADPH by HPLC analysis
Type: ADME
pIC50: −log10 of the molar value.
MEASURED_ENDPOINT: pIC50

Form field: reported pIC50 of "C[C@@H]1CCO[C@H]2Cn3cc(C(=O)NCc4ccc(F)cc4F)c(=O)c(O)c3C(=O)N12"
< 4.00

----------
EXPERIMENTAL_SYSTEM: Broad substrate specificity ATP-binding cassette transporter ABCG2 (Homo sapiens)
Sequence (Q9UNQ0 whole entry): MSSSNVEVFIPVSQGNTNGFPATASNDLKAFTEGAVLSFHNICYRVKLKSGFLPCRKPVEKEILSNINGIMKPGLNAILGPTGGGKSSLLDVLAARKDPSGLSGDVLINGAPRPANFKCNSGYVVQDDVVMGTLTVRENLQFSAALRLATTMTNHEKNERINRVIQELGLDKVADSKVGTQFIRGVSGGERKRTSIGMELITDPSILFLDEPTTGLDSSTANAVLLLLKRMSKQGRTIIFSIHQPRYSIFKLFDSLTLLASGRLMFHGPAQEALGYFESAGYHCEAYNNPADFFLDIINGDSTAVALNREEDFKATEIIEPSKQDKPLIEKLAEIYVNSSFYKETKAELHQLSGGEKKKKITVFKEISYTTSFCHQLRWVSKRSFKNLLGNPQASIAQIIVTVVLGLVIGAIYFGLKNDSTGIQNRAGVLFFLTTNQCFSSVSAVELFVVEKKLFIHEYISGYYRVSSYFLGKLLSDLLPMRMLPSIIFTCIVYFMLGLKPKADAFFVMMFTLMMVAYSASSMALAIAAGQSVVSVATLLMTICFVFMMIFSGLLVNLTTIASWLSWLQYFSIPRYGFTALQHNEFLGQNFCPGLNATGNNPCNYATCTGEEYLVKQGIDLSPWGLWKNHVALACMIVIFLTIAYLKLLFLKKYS
RUN_DESCRIPTION: Inhibition of BCRP (unknown origin) expressed in MDCK2 cells assessed as basolateral to apical transport of [14C]cimetidine after 90 mins by liquid scintillation counting analysis
Type: ADME, cell-based, MDCK-II
MEASURED_ENDPOINT: IC50

Query for Broad substrate specificity ATP-binding cassette transporter ABCG2 (Homo sapiens): what IC50 does the record show for "C[C@@H]1CCO[C@H]2Cn3cc(C(=O)NCc4ccc(F)cc4F)c(=O)c(O)c3C(=O)N12" ?
> 30 µM

----------
RUN_DESCRIPTION: Drug excretion in human feces at 20 mg, po
Assay type: ADME, tissue-based
CONDITION: faeces, read-out: Drug excretion
MEASURED_ENDPOINT: dose excreted
State the result as a value with its unit after it.

Form field: reported dose excreted of C[C@@H]1CCO[C@H]2Cn3cc(C(=O)NCc4ccc(F)cc4F)c(=O)c(O)c3C(=O)N12 [DOLUTEGRAVIR]
3.1%

----------
EXPERIMENTAL_SYSTEM: Cytochrome P450 2A6 (Homo sapiens)
Sequence (P11509 whole entry): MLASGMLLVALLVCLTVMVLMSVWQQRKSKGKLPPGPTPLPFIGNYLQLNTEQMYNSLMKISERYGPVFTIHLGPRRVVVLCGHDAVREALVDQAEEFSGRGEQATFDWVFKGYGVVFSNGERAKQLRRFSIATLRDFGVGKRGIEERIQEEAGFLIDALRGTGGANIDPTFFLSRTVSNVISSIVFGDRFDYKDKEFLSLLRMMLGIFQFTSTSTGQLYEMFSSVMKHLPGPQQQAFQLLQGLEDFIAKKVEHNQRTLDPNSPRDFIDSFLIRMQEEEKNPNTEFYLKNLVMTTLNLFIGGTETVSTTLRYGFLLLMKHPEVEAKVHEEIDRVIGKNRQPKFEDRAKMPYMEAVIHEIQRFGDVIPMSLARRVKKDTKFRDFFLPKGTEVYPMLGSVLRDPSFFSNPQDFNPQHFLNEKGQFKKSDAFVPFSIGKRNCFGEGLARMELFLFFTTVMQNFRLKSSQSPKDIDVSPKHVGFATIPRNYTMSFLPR
RUN_DESCRIPTION: Metabolism-dependent inhibition of CYP2A6 in human liver microsomes using coumarin as substrate preincubated for 20 mins with NADPH prior to initiation of reaction with probe substrate by HPLC analysis
Format: ADME
MEASURED_ENDPOINT: IC50

Query for Cytochrome P450 2A6 (Homo sapiens): what IC50 does the record show for C[C@@H]1CCO[C@H]2Cn3cc(C(=O)NCc4ccc(F)cc4F)c(=O)c(O)c3C(=O)N12 [DOLUTEGRAVIR] ?
> 100 µM
